# Experimental target: T1, EsCas13d, nuclease-dead (Eubacterium siraeum, UniProt B0MS50, R295A;H300A;R849A;H854A)
# T1 sequence: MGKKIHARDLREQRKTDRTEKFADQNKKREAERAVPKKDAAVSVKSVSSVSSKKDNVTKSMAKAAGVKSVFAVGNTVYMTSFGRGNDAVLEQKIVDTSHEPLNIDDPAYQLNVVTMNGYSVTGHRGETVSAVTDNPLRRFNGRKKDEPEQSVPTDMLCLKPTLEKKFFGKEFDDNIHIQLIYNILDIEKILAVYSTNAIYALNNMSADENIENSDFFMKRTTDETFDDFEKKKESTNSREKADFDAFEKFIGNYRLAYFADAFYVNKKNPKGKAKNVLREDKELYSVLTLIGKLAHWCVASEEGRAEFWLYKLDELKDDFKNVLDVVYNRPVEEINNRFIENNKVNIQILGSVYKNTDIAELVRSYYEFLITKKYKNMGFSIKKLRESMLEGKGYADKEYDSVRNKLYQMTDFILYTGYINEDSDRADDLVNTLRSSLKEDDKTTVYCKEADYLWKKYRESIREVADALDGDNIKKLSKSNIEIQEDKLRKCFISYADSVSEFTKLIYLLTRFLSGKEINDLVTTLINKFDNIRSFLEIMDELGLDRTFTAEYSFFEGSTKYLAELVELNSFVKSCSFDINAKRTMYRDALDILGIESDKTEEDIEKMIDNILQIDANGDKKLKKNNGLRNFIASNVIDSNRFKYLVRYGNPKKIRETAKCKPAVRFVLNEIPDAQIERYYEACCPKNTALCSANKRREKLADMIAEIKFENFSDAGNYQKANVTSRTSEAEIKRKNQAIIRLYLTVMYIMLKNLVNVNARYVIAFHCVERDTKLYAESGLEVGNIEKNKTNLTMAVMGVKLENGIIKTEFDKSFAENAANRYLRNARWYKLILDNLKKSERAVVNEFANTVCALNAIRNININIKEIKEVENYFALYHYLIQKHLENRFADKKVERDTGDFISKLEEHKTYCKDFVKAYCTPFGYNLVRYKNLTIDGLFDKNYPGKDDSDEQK
# Assay summary: crRNA (strand 1, pre-loaded); Mg2+; 40 mM Tris-HCl pH 7.5, 150 mM NaCl, 6 mM MgCl2, 1 mM DTT, 0.1% Tween-20, 0.2 mg/ml BSA; 25 C; 10 min per concentration, then washed
# Condition set: tags: His6-TwinStrep-SUMO cleaved; N-terminal SNAP kept (SNAP-Surface 488); label: 3' end held by stalled T7 RNA polymerase
Experimental readout: Kd (nM)
The reply should contain only the number, in nM.

# binder target 1 insU 3' of 20,insU 3' of 18 (mixed) RNA 1: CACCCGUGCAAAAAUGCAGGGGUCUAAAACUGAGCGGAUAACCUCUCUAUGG RNA 2: GGGAAUGGAUCCACAUCUACGAAUUCGUACCAUUAUGAGAGGUUAUCCGCUCACCGAGAUCGGAAGAGCACACGU ; its Kd = 33

# binder target 2 MT 5'PFS UUG 3'PFS UAC (mixed) RNA 1: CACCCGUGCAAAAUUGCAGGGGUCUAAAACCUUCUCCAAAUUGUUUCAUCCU RNA 2: GGGAAUGGAUCCACAUCUACGAAUUCUUGAGGAUGAAACAAUUUGGAGAAGUACAGAUCGGAAGAGCACACGU ; its Kd = 14.3

# binder target 1 A9U (mixed) RNA 1: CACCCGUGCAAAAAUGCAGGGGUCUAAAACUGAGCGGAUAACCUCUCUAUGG RNA 2: GGGAAUGGAUCCACAUCUACGAAUUCGUACCAUAGAGAGGUUUUCCGCUCACCGAGAUCGGAAGAGCACACGU ; its Kd = 8.9

# binder target 1 A9G,U10A (mixed) RNA 1: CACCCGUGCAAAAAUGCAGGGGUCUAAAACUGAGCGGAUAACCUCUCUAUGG RNA 2: GGGAAUGGAUCCACAUCUACGAAUUCGUACCAUAGAGAGGUAGUCCGCUCACCGAGAUCGGAAGAGCACACGU ; its Kd = 15.5

Just for reference, paper PMC10786891 is where these values come from.
